Molecular target: Cholinesterase (Equus caballus, UniProt P81908)
Sequence (P81908 whole entry): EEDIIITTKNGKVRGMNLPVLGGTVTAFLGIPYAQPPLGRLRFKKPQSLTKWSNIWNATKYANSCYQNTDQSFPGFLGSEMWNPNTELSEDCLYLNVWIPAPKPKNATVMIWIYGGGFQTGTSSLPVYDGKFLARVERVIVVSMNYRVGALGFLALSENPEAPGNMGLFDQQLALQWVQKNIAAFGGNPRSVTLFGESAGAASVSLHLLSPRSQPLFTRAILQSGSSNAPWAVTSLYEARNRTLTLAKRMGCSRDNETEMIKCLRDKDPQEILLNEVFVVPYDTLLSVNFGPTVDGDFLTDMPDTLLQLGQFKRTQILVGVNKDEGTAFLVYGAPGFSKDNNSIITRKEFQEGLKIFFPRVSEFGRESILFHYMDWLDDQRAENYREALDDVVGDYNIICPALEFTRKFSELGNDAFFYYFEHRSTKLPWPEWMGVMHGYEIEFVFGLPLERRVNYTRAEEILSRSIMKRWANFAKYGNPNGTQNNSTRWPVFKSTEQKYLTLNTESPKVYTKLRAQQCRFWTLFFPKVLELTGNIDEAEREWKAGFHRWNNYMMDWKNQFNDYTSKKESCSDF
Assay: Inhibition of equine serum BuChE using DTNB as substrate incubated for 5 mins prior to substrate addition measured after 2 mins by Ellman's method
Binarize IC50 at 60 µM; below is Met, at or above is Not met.

// below: answered molecules
Fc1cccc(/C=C/CSSC/C=C/c2cccc(F)c2)c1 :: Not met
Brc1cccc(/C=C/CSSC/C=C/c2cccc(Br)c2)c1 :: Not met
COc1cc(/C=C/C(=O)SSC(=O)/C=C/c2ccc(O)c(OC)c2)ccc1O :: Met

Please determine if COc1ccc(/C=C/C(=O)SSC(=O)/C=C/c2ccc(OC)c(OC)c2)cc1OC is below 60 µM in terms of IC50.
Met

Repeat for the following molecule: COc1ccc(/C=C/CSSC/C=C/c2ccc(OC)c(OC)c2)cc1OC
Met
